Sourced from the supplement of paper PMC11208160

# assay.explanation: recombinant barcode read abundance after kanamycin selection (control-corrected) (log10(CPM+1)); higher = more efficient recombination; sequences stand for … in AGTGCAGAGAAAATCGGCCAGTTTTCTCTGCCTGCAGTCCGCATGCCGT…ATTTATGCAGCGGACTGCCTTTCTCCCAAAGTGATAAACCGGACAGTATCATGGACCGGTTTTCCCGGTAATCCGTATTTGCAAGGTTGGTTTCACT; site = the 11-nt target
Each record here notes measured recombinant barcode read abundance (log10).
Write the number on its own, no unit after it.

Past entries and their recorded results:
seq_text="GGACACCACTGGGTTCTAACCTGTTGCCTGT [GGACACCCTAG_LTGcore_AC_RTGcore_AC] (site GGACACCCTAG) (LTG core: AC, RTG core: AC)" obs_value=0.54
seq_text="GGGAGCCCTTGGGTTCTAACCTGTTGCTGGC [GGGAGCCCTCA_LTGcore_CT_RTGcore_GC] (site GGGAGCCCTCA) (LTG core: CT, RTG core: GC)" obs_value=0.0756
seq_text="GGTGCCCCTTGGGTTCTAACCTGTTGCCGGC [GGTGCCCCTCG_LTGcore_CT_RTGcore_GC] (site GGTGCCCCTCG) (LTG core: CT, RTG core: GC)" obs_value=0.83
seq_text="GAGTCCTTGTGGGTTCTAACCTGTTGCCTAG [GAGTCCTCTAG_LTGcore_TG_RTGcore_CT] (site GAGTCCTCTAG) (LTG core: TG, RTG core: CT)" obs_value=0.0483

Below: the item to evaluate.
Report recombinant barcode read abundance (log10) for TCTACCCCTTGGGTTCTAACCTGTTGCTGGA [TCTACCCCTCA_LTGcore_CT_RTGcore_TC] (site TCTACCCCTCA) (LTG core: CT, RTG core: TC) please.
0.0313
